- Subject Of Test: T1, HLA-A2/E7 (11-19) tetramer (human; HPV 16)
- T1 construct: also called E7(11-19) peptide-MHC tetramer; E7 (11-19)-loaded tetramer
- Assay Notes: tetramer flow cytometry; transfected 1:1 CD4+ and CD4+/CD8+ Jurkat-derived cells;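 note: cells transiently transfected with TCR plasmids, stained 48 h later with HLA-A*02:01 peptide-MHC tetramer plus anti-CD8 antibody, read by flow cytometry to assess CD8-independent tetramer binding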
Readout Label: % cells in E7 tet-/CD8- quadrant (%)
Please respond with the number in % and leave the unit unwritten.

Before answering, review these 4 worked examples.
[[record]]
binder = "TCR 46 (codon optimized, cysteine modified version) (TCR, V domains shown) V domain 1: AQSVTQLDSQVPVFEEAPVELRCNYSSSVSVYLFWYVQYPNQGLQLLLKYLSGSTLVKGINGFEAEFNKSQTSFHLRKPSVHISDTAEYFCAVSPSSGTYKYIFGTGTRLKVLA V domain 2: GAGVSQTPSNKVTEKGKYVELRCDPISGHTALYWYRQSLGQGPEFLIYFQGTGAADDSGLPNDRFFAVRPEGSVSTLKIQRTERGDSAVYLCASSLYLGGSETQYFGPGTRLLVLE"
units_symbol = "%"
assay_value = 58.6

[[record]]
binder = "TCR 50 (codon optimized, cysteine modified version) (TCR, V domains shown) V domain 1: GEDVEQSLFLSVREGDSSVINCTYTDSSSTYLYWYKQEPGAGLQLLTYIFSNMDMKQDQRLTVLLNKKDKHLSLRIADTQTGDSAIYFCAESPPGTYKYIFGTGTRLKVLA V domain 2: DSGVTQTPKHLITATGQRVTLRCSPRSGDLSVYWYQQSLDQGLQFLIHYYNGEERAKGNILERFSAQQFPDLHSELNLSSLELGDSALYFCASSATRDAYGYTFGSGTRLTVVE"
units_symbol = "%"
assay_value = 65.8

[[record]]
binder = "TCR 36 (codon optimized, cysteine modified version) (TCR, V domains shown) V domain 1: RKEVEQDPGPFNVPEGATVAFNCTYSNSASQSFFWYRQDCRKEPKLLMSVYSSGNEDGRFTAQLNRASQYISLLIRDSKLSDSATYLCVVNRDNYGQNFVFGPGTRLSVLP V domain 2: EPEVTQTPSHQVTQMGQEVILRCVPISNHLYFYWYRQILGQKVEFLVSFYNNEISEKSEIFDDQFSVERPDGSNFTLKIRSTKLEDSAMYFCAMTGRSNYEQYFGPGTRLTVTE"
units_symbol = "%"
assay_value = 34.5

[[record]]
binder = "TCR 48 (codon optimized, cysteine modified version) (TCR, V domains shown) V domain 1: QKEVEQDPGPLSVPEGAIVSLNCTYSNSAFQYFMWYRQYSRKGPELLMYTYSSGNKEDGRFTAQVDKSSKYISLFIRDSQPSDSATYLCAMRIQGAQKLVFGQGTRLTINP V domain 2: EPEVTQTPSHQVTQMGQEVILRCVPISNHLYFYWYRQILGQKVEFLVSFYNNEISEKSEIFDDQFSVERPDGSNFTLKIRSTKLEDSAMYFCASTGRVSYEQYFGPGTRLTVTE"
units_symbol = "%"
assay_value = 56.4


Kindly consider the entry below.
Challenge: Name the recorded % cells in E7 tet-/CD8- quadrant of the binder listed here: TCR 40 (codon optimized, cysteine modified version) (TCR, V domains shown) V domain 1: GQQVMQIPQYQHVQEGEDFTTYCNSSTTLSNIQWYKQRPGGHPVFLIQLVKSGEVKKQKRLTFQFGEAKKNSSLHITATQTTDVGTYFCAGRNNFNKFYFGSGTKLNVKP V domain 2: EPEVTQTPSHQVTQMGQEVILRCVPISNHLYFYWYRQILGQKVEFLVSFYNNEISEKSEIFDDQFSVERPDGSNFTLKIRSTKLEDSAMYFCAITARSSYEQYFGPGTRLTVTE
Response given: 48.4
